Reported Simulated intestinal fluid (pH 6.8): % remaining after 2 h/37° C. values for the following compounds.
# Protocol: In vitro stability of dicarboxylate amino acid ester prodrugs in simulated gastric and intestinal juice, distilled water and pH 10 buffer (HPLC)
# Test Context: pH 6.8, 2 h, 37° C.
Readout Type: Simulated intestinal fluid (pH 6.8): % remaining after 2 h/37° C. (%)

Compound	Endpoint Result
CC[C@H](C)[C@H](NC(=O)CCCC(=O)OC1=CC[C@@]2(O)[C@H]3Cc4ccc(OC)c5c4[C@@]2(CCN3C)[C@H]1O5)C(=O)O	80
COc1ccc2c3c1O[C@H]1C(OC(=O)CCC(=O)N4CCC[C@H]4C(=O)O)=CC[C@@]4(O)[C@@H](C2)N(C)CC[C@]314	96
COc1ccc2c3c1O[C@H]1C(OC(=O)CCC(=O)N[C@@H](Cc4ccccc4)C(=O)O)=CC[C@@]4(O)[C@@H](C2)N(C)CC[C@]314	3
COc1ccc2c3c1O[C@H]1[C@@H](OC(=O)CCC(=O)NC(C(=O)O)C(C)C)CCC4[C@@H](C2)N(C)CC[C@@]341 (stereo in doubt)	100
COc1ccc2c3c1O[C@H]1[C@@H](OC(=O)CCC(=O)N[C@H](C(=O)O)C(C)C)C=CC4[C@@H](C2)N(C)CC[C@@]341 (stereo partly drawn) [Codeine-[succinyl-(S)-valine] ester, codeine-[succinyl-(S)-valine]ester]	98
